From: patent US11505533B2

tested.target: CYP2D6 (Homo sapiens, UniProt P10635)
Sequence (P10635 whole entry): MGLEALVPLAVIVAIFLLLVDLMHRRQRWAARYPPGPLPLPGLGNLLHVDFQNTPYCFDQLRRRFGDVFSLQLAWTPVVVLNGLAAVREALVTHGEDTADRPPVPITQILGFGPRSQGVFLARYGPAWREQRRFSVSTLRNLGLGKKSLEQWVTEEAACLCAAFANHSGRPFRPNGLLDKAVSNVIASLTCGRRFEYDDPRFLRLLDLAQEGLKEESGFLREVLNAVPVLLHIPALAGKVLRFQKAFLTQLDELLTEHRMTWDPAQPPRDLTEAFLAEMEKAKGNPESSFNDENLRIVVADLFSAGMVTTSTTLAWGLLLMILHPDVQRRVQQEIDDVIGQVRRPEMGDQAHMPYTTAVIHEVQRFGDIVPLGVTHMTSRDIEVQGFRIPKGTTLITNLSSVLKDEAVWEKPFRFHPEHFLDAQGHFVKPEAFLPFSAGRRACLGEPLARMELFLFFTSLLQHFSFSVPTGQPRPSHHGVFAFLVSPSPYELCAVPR
quantity.name: inhibition at 10 µM (%)
The answer is to be given in %; state only the numeric part.

Endpoint output: inhibition at 10 µM of O=C(Nc1nnc(-c2ccc(F)cc2)o1)c1ccc(Oc2ccccc2)nc1 [MBX-4237] . Value? -4

====

tested.target: CYP1A2 (Homo sapiens)
Sequence (P05177 whole entry): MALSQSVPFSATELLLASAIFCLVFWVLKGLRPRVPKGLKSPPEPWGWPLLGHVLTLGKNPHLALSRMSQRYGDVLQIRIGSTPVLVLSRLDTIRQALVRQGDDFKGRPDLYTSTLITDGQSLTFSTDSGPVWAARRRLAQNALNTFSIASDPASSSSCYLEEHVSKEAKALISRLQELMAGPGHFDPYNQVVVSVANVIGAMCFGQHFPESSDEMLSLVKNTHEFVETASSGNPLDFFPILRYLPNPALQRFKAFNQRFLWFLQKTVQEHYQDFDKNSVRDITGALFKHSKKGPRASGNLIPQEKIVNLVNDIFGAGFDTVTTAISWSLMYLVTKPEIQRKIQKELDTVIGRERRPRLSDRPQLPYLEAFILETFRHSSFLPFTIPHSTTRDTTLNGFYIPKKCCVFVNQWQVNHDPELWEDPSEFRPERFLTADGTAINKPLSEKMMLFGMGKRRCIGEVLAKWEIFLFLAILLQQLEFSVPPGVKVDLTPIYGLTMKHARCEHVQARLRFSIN
quantity.name: inhibition at 10 µM (%)
The answer is to be given in %; state only the numeric part.

Endpoint output: inhibition at 10 µM of O=C(Nc1nnc(-c2ccc(F)cc2)o1)c1ccc(Oc2ccccc2)nc1 . Value? 1

====

System: E. coli TolC(−)
protocol.text: TolC(−) MIC (NB)
Format: cell-based
measurement.conditions: Escherichia coli, read-out: TolC(−) MIC (μM)(NB)
Flag rule - MIC less than 6 µM flags yes (1); the remaining entries get no (0).

Quick check: MIC of O=C(Nc1nnc(-c2ccc(F)cc2)o1)N1CCN(c2ncccn2)CC1 under 6 µM? no (0)

Then this compound: CC1=CCN(C(=O)Nc2nnc(-c3ccc(F)cc3)o2)CC1 no (0)

Then this compound: O=C(Nc1nnc(-c2ccc(F)cc2)o1)N1CCCC1 no (0)

Then this compound: CC(C)(C)OC(=O)N1CC(Oc2ccc(C(=O)Nc3nnc(-c4ccc(F)cc4)o3)cc2)C1 yes (1)

Then this compound: O=C(Nc1nnc(-c2ccc(F)cc2)o1)N1CCOCC1 no (0)

Then this compound: O=C(Nc1nnc(C2CCCCC2)o1)c1ccc(Oc2cccc(O)c2)cc1 yes (1)

Then this compound: O=C(Nc1nnc(-c2ccc(F)cc2)o1)N1CC(C(F)(F)F)C(C(F)(F)F)C1 (stereo not drawn) yes (1)

Then this compound: O=C(Nc1nnc(-c2ccc(F)cc2)o1)N1CCC2CCCCC2C1 (stereo not drawn) no (0)

Then this compound: CC(C)(C)COc1ccc(C(=O)Nc2nnc(-c3ccc(F)cc3)o2)cc1 no (0)

Then this compound: COC(=O)c1ccc(CC2CCN(C(=O)Nc3nnc(-c4ccc(F)cc4)o3)CC2)cc1 no (0)

Then this compound: O=C(Nc1nnc(-c2ccc(F)cc2)o1)N1CCCC2CCCCC21 (stereo not drawn) no (0)

Then this compound: O=C(Nc1nnc(-c2ccc(F)cc2)o1)N1CCC2(CCCC2)CC1 no (0)

Then this compound: O=C(Nc1nnc(-c2ccc(F)cc2)o1)N1CCC(C(F)(F)F)C1 (stereo not drawn) no (0)

Then this compound: O=C(Nc1nnc(-c2ccc(N3CCCC3)cc2)o1)N1CCc2ccccc2C1 no (0)

Then this compound: CC(C)(C)OC1CCN(C(=O)Nc2nnc(-c3ccc(F)cc3)o2)CC1 no (0)

Then this compound: Cc1cc(F)cc(C)c1-c1nnc(NC(=O)N2CC=C(C(F)(F)F)CC2)o1 yes (1)

Then this compound: C[C@@H]1CCCN(C(=O)Nc2nnc(-c3ccc(F)cc3)o2)C1 no (0)

Then this compound: CC(C)(C)C1CCN(C(=O)Nc2nnc(-c3ccc(F)cc3)o2)CC1 yes (1)

====

Test system: E. coli TolC(−)
protocol.text: TolC(−) MIC (NB)
Assay type: cell-based
measurement.conditions: Escherichia coli, read-out: TolC(−) MIC (μM)(NB)
quantity.name: MIC (µM)
The answer is to be given in µM; state only the numeric part.

Endpoint output: MIC of O=C(Nc1nnc(-c2ccc(F)cc2)o1)N1CC(C(F)F)C2(CC2)C1 (centres unmarked) [compound 4932] . Value? 17.7

Then this compound: O=C(Nc1nnc(-c2ccc(F)cc2)o1)c1ccc(Oc2ccccc2)cn1 [compound 4258] 35.4

Then this compound: O=C(Nc1nnc(-c2ccc(F)cc2)o1)N1CCC(Cl)=C(Cl)C1 [compound 4737] 0.78

Then this compound: CC1CCCN(C(=O)Nc2nnc(-c3ccc(F)cc3)o2)C1 (centres unmarked) [compound 4767] 11.1
